- measurement target: sigma sites
- assay notes: Sigma receptor binding assay, [3H]DTG
- test parameters: 5 nM [3H]DTG; guinea pig whole brain; room temperature, 45 minutes; read-out: Receptor Potency Sigma DTG (IC50, nMol)
pIC50: −log10 of the molar value. Structures can show the parent of a compound that is named as a salt.
Mark Criterion not met for pIC50 values under 7, and Criterion met for everything at or above.

Inquiry: Can CN(C)CCCCCCOc1ccc2oc(-c3ccccc3)cc(=O)c2c1 [Example 4, hydrochloride] be said to have pIC50 at or above 7?
Reply text: Criterion not met

---

The following compounds are listed with their measured pIC50 values.
- measurement target: sigma sites
- assay notes: Sigma receptor binding assay, [3H]DTG
- test parameters: 5 nM [3H]DTG; guinea pig whole brain; room temperature, 45 minutes; read-out: Receptor Potency Sigma DTG (IC50, nMol)
Structures can show the parent of a compound that is named as a salt.
Formally, pIC50 is defined as -log10 of the concentration c, with c in mol/L.

>  <compound>
C[C@@H]1CN(CCCn2c3ccccc3c3ccccc32)C[C@H](C)N1 [Rimcazole, reference compound]

>  <test value>
5.79

$$$$
>  <compound>
O=c1cc(C2CCCCC2)oc2ccc(OCCCCCCN3CCC(O)CC3)cc12 [Example 26, hydrochloride]

>  <test value>
7.06

$$$$
>  <compound>
O=c1cc(-c2ccccc2Cl)oc2ccc(OCCCCCCN3CCC(O)CC3)cc12

>  <test value>
7.33

$$$$
>  <compound>
OC(CCCN1CCN(c2ncc(F)cn2)CC1)c1ccc(F)cc1 (centres unmarked) [BMY14802, reference compound]

>  <test value>
6.63

$$$$

The observed pIC50 for O=c1cc(-c2ccccc2)oc2ccc(OCCCCCCN3CCC(O)CC3)cc12 [Example 6, hydrochloride] when tested with sigma sites stands at 7.00

Ref: patent US5278174A
